# System: Brain
# Protocol Text: Drug level in mouse brain at 6.6 mg/kg, po
# Type: ADME, organism-based
# Design: dose 6.6 mg/kg, route oral
# Condition Label: in vivo, read-out: Drug uptake
Measurement Kind: concentration

Recorded concentration (compound CC1NC(NCC(F)F)=Nc2cccc(Cl)c21 (stereo unspecified) ): > 1000 nM

* * *

# Protocol Text: Selectivity for human 5HT5A receptor over 5HT2A receptor
Measurement Kind: Selectivity ratio

Observe how each entry below is paired with its result.
Recorded Selectivity ratio (compound CC(C)Oc1cccc2c1N=C(NCC(F)F)NC2C (configuration not stated) ): > 30

Recorded Selectivity ratio (compound COc1c(Cl)ccc2c1C(C)NC(NCC(F)F)=N2 (configuration not stated) ): > 30

Recorded Selectivity ratio (compound CC1NC(NCC(F)F)=Nc2c(Cl)ccc(Cl)c21 (configuration not stated) ): > 30

Continuing:
Recorded Selectivity ratio (compound CC1NC(NCC(F)F)=Nc2ccc(Cl)c(Cl)c21 (configuration not stated) ): > 30

Recorded Selectivity ratio (compound COc1cccc2c1N=C(NCC(F)F)NC2C (configuration not stated) ): > 30

Recorded Selectivity ratio (compound CC1NC(NCC(F)F)=Nc2cccc(Cl)c21 (configuration not stated) ): > 30

Recorded Selectivity ratio (compound C[C@@H]1NC(NCC(F)F)=Nc2ccc(Cl)c(Cl)c21 ): > 30

* * *

# Protocol Text: Volume of distribution at steady state in mouse at 5 mg/kg, iv
# Type: ADME, organism-based
# Parameters: dose 5 mg/kg, route intravenous
# Condition Label: in vivo, read-out: Vdss
Measurement Kind: Vd (L/kg)
Provide only the numeric value, understood in L/kg.

Recorded Vd (compound CC1NC(NCC(F)F)=Nc2cccc(Cl)c21 (configuration not stated) ): 3.6

For the next question, use this compound.
Recorded Vd (compound CC1NC(N)=Nc2cccc(Cl)c21 (configuration not stated) ): 9

* * *

# Protocol Text: Half life in mouse at 5 mg/kg, iv
# Format: ADME, organism-based
# Design: dose 5 mg/kg, route intravenous
# Condition Label: in vivo
half-life for assorted compounds
Provide only the numeric value, understood in h.

Recorded half-life (compound CC1NC(NCC(F)F)=Nc2cccc(Cl)c21 (configuration not stated) ): 1.4

For the next question, use this compound.
Recorded half-life (compound CC1NC(N)=Nc2cccc(Cl)c21 (configuration not stated) ): 4

* * *

# Protocol Text: Distribution coefficient, log D of the compound
# Format: physicochemical
# Condition Label: octanol/water
Classes by logD: lower segment = under -0.1, middle segment = from -0.1 up to 1, upper segment = 1 and over

Incoming: Please let me know in which category the item CC1NC(NC2CCC2)=Nc2ccccc21 (stereo unspecified) belongs.
Outgoing: lower segment

Continuing:
Incoming: Please let me know in which category the item CCCOCCNC1=Nc2ccccc2C(C)N1 (stereo unspecified) belongs.
Outgoing: middle segment

Incoming: Please let me know in which category the item C[C@H]1NC(NCC(F)F)=Nc2ccc(Cl)c(Cl)c21 belongs.
Outgoing: upper segment

Incoming: Please let me know in which category the item CCCNC1=Nc2ccccc2C(C)N1 (stereo unspecified) belongs.
Outgoing: lower segment

Incoming: Please let me know in which category the item CC1NC(NCC2COCCO2)=Nc2ccccc21 (stereo unspecified) belongs.
Outgoing: lower segment

Incoming: Please let me know in which category the item CC(C)Oc1cccc2c1N=C(NCC(F)F)NC2C (stereo unspecified) belongs.
Outgoing: middle segment

Incoming: Please let me know in which category the item CC1NC(NCC(F)F)=Nc2ccc(Cl)c(Cl)c21 (stereo unspecified) belongs.
Outgoing: upper segment

Incoming: Please let me know in which category the item COc1c(Cl)ccc2c1C(C)NC(NCC(F)F)=N2 (stereo unspecified) belongs.
Outgoing: upper segment

Incoming: Please let me know in which category the item CNC1=Nc2ccccc2C(C)N1 (stereo unspecified) belongs.
Outgoing: lower segment

Incoming: Please let me know in which category the item CC1NC(NCCC2CCCCC2)=Nc2ccccc21 (stereo unspecified) belongs.
Outgoing: upper segment

Incoming: Please let me know in which category the item CC1NC(NCC(F)F)=Nc2ccccc21 (stereo unspecified) belongs.
Outgoing: lower segment

Incoming: Please let me know in which category the item CC1NC(N)=Nc2cccc(Cl)c21 (stereo unspecified) belongs.
Outgoing: middle segment

Incoming: Please let me know in which category the item C[C@@H]1NC(NCC(F)F)=Nc2ccc(Cl)c(Cl)c21 belongs.
Outgoing: upper segment

Incoming: Please let me know in which category the item CC1NC(NCC(F)F)=Nc2cccc(Cl)c21 (stereo unspecified) belongs.
Outgoing: upper segment
